target: CYP2C9 F114L mutant (Homo sapiens, UniProt P11712, F114L); assay: biochemical

compound	Kd (µM)
C[C@H](C(=O)O)c1ccc(-c2ccccc2)c(F)c1 [(S)-flurbiprofen]	4.1
